B1: C10orf62 (parent)
chain: MLWVQRKRRRKETSECPSDKDKSP

Variants of: B1
method_summary: protein stability index of a GFP-peptide fusion (GPS, HEK-293T) (PSI 1-6); higher = more stable;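 further: lentivirally expressed fusions sorted by FACS into six bins by GFP to DsRed ratio, PSI derived from sequencing read proportions per bin multiplied by bin number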
conditions: c terminus: a fixed tail appended
protein stability index reference
Write no unit; give the number alone.

Worked cases, answers included:
1. W3S = 4.87
2. D21G = 3.36
3. R10A = 3.85
4. R9G = 3.2
5. D21A = 2.64
6. S14G = 3.1
7. S14M = 3.31
8. R6L = 3.11

Okay, next one:
Form field protein stability index, entry K11A : 4.09
